- System: P388 leukemia ip, CD2F1 mice, survival T/C
- ASSAY REMARKS: NCI In Vivo Anticancer Drug Screen. Data for tumor model P388 Leukemia (intraperitoneal) in CD2F1 (CDF1) mice
- STUDY CONDITIONS: endpoint: median survival time; dose: 50.0 mg/kg/injection; schedule: Q01DX005 (ip); vehicle: saline with Tween-80; higher = longer survival
Inconclusive results and toxic doses are left out. Square brackets hold non-standard residues; d marks the D form. Peptide text beside a SMILES is read from it. * marks the point of attachment. ξ: configuration not given here. ξF = NC(Cc1ccccc1)C(=O)O; Cbz = O=C(OCc1ccccc1)*; Sar = CNCC(=O)O
Entries and their T/C values follow.

Consider the following illustrative entries.
MOLECULE	T/C
O=C(OC(c1ccccc1)c1ccccc1)C1CSCN1C(=O)OCc1ccccc1[N+](=O)[O-] (centres undefined)	108 % of control
CCOC(=O)C/C(O)=C(\N=Nc1nc[nH]c1C(N)=O)C(=O)OCC	105 % of control
CN(CC(=O)NC(Cc1ccccc1)C(=O)O)C(=O)OCc1ccccc1 (centres undefined) (Cbz-[Sar]-[ξF]-OH)	105 % of control

Now let's try a different one.
Ask: Report T/C for O=C(O)c1cc(O)c(O)c(OC(=O)c2cc(O)c(O)c(O)c2CNc2ccc3cc(S(=O)(=O)O)cc(S(=O)(=O)O)c3c2)c1 please.
Reply: 110 % of control

* * *

- Tested on: P388 leukemia ip, CD2F1 mice, survival T/C
- ASSAY REMARKS: NCI In Vivo Anticancer Drug Screen. Data for tumor model P388 Leukemia (intraperitoneal) in CD2F1 (CDF1) mice
- STUDY CONDITIONS: endpoint: median survival time; dose: 50.0 mg/kg/injection; schedule: Q01DX005 (ip); vehicle: Klucel (hydroxypropylcellulose) (HPC); higher = longer survival
Toxic doses and inconclusive results are not listed. Peptide text beside a SMILES is read from it. * marks the point of attachment. Cbz = O=C(OCc1ccccc1)*; Bn = c1ccc(C*)cc1
METRIC: T/C

MOLECULE	T/C
COc1ccc(CSCC(NC(=O)OC(C)(C)C)C(=O)O)cc1 (stereo unspecified)	105 % of control
CC(/C=C/c1ccccc1)=N\O	97 % of control
NC(CCCCNC(=S)S)C(=O)O.[Zn+2] (stereo unspecified)	107 % of control
Cc1ccc(S(=O)(=O)N2c3ccccc3CCN2/C=C/c2ccccc2)cc1	100 % of control
O=C1Cc2ccccc2C2(CCCCC2)O1	100 % of control

Now, please, on to the next molecule.
Ask: For the molecule shown here, CC(C)C(NC(=O)C(CSCc1ccccc1)NC(=O)OCc1ccccc1)C(=O)O (stereo unspecified) (Cbz-Cys(Bn)-Val-OH; configuration not given here) , give the reported T/C.
Reply: 97 % of control

* * *

- System: P388 leukemia ip, CD2F1 mice, survival T/C
- ASSAY REMARKS: NCI In Vivo Anticancer Drug Screen. Data for tumor model P388 Leukemia (intraperitoneal) in CD2F1 (CDF1) mice
- STUDY CONDITIONS: endpoint: median survival time; dose: 12.5 mg/kg/injection; schedule: Q01DX005 (ip); vehicle: saline with Tween-80; higher = longer survival
Toxic doses and inconclusive results are not listed.
Each entry below carries its reported T/C.

The cases that follow already have their T/C on record.
MOLECULE	METRIC	REPORTED
CC(C)CCN(CCC(C)C)CC(O)c1cc2c(c3ccccc13)CCCC2 (stereo unspecified)	T/C	96 % of control
Cc1ccc(S(=O)(=O)N/N=C/c2ccc(Cl)cc2)cc1	T/C	102 % of control

Ask: For the molecule O=c1c2ccccc2sc2cccc(NCCN3CCC(C4CCN(CCNc5cccc6sc7ccccc7c(=O)c56)CC4)CC3)c12 , what T/C is on record?
Reply: 90 % of control

Ask: Field entry: COC(=O)CCC(=O)C(C#N)c1ccc(CC#N)cc1 (stereo unspecified)
Reply: 96 % of control

Ask: What do you have for Cc1ccc2cccnc2c1NCCCCCNC(C)C ?
Reply: 97 % of control

Ask: And the next one, CCCCCCCCCCCCCCCCCCOCC(COP(=O)([O-])OCC[N+](C)(C)C)OC (stereo unspecified) ?
Reply: 109 % of control

* * *

- System: P388 leukemia ip, CD2F1 mice, survival T/C
- ASSAY REMARKS: NCI In Vivo Anticancer Drug Screen. Data for tumor model P388 Leukemia (intraperitoneal) in CD2F1 (CDF1) mice
- STUDY CONDITIONS: endpoint: median survival time; dose: 60.0 mg/kg/injection; schedule: Q01DX005 (ip); vehicle: saline with Tween-80
Toxic doses and inconclusive results are not listed. The calls were made as follows: active = survival T/C of 150% or more; inactive = T/C below 125% in these data.
Allowed answers: y = active, n = inactive

Ask: Per the records of this test, what outcome belongs to O=c1n2ccccc2nc2nc3ccccc3n12 ?
Reply: n

Ask: Repeat with O=C1CS/C(=C/Cc2nc3ccccc3s2)N1
Reply: n

* * *

- System: P388 leukemia ip, CD2F1 mice, survival T/C
- ASSAY REMARKS: NCI In Vivo Anticancer Drug Screen. Data for tumor model P388 Leukemia (intraperitoneal) in CD2F1 (CDF1) mice
- STUDY CONDITIONS: endpoint: median survival time; dose: 240.0 mg/kg/injection; schedule: Q01DX005 (ip); vehicle: saline; higher = longer survival
Inconclusive results and toxic doses are left out.
METRIC: T/C

// solved cases for T/C follow
MOLECULE	TGT	T/C
CCOC(=O)CC1(C)c2nc(NC(C)=O)sc2Cc2sc(NC(C)=O)nc21	P388 leukemia ip, CD2F1 mice, survival T/C	100 % of control
CCCNC(=O)OCCN(CCOC(=O)NCCC)CCc1cccc(OC)c1OC	P388 leukemia ip, CD2F1 mice, survival T/C	100 % of control
CC1=CC(c2ccccc2)=CS(=O)(N(C)C)=C1 (stereo not drawn)	P388 leukemia ip, CD2F1 mice, survival T/C	104 % of control
COc1ccc(C2C3C(=O)NC(=O)C2C(=O)NC3=O)cc1OC (stereo not drawn)	P388 leukemia ip, CD2F1 mice, survival T/C	90 % of control

Ask: Which T/C value belongs to CCCCCCCC[N+]1([O-])CC[N+](C)([O-])CC1 (stereo not drawn) ?
Reply: 102 % of control

Ask: Likewise for COC(=O)c1nnn(-c2ccc(S(N)(=O)=O)cc2)c1N ?
Reply: 98 % of control

Ask: Cool, now CCOC(C)c1nc2c([nH]1)c(=O)n(C)c(=O)n2C (stereo not drawn)
Reply: 95 % of control

Ask: Now consider COC(=O)c1cc(-c2ccccn2)[nH]c(=O)c1C#N .
Reply: 97 % of control

* * *

- System: P388 leukemia ip, CD2F1 mice, survival T/C
- ASSAY REMARKS: NCI In Vivo Anticancer Drug Screen. Data for tumor model P388 Leukemia (intraperitoneal) in CD2F1 (CDF1) mice
- STUDY CONDITIONS: endpoint: median survival time; dose: 120.0 mg/kg/injection; schedule: Q01DX005 (ip); vehicle: saline with Tween-80; higher = longer survival
Inconclusive results and toxic doses are left out.
METRIC: T/C

COMPOUND	REPORTED
COC(=O)c1cc(Cl)ccc1OCC(O)CNc1ccc(Cl)cc1C(=O)c1ccccc1 (stereo not drawn)	100 % of control

Ask: Short answer please: T/C, P388 leukemia ip, CD2F1 mice, survival T/C, entry CC(=O)OCC1OC(OC2CC(=O)C[C@H]3C(=O)N(c4ccccc4)C(=O)[C@@H]23)C(OC(C)=O)C(OC(C)=O)C1OC(C)=O (stereo partly drawn)
Reply: 103 % of control

Ask: Repeat with CN(C)CCSC1=Nc2ccc(Cl)cc2C(c2ccccc2Cl)=NC1
Reply: 101 % of control

Ask: Quick one: Cc1ccc2c(c1)C1(SC(C)C(=O)N1c1ccc(Cl)cc1)C(=O)N2 (stereo not drawn)
Reply: 119 % of control

* * *

- System: P388 leukemia ip, CD2F1 mice, survival T/C
- ASSAY REMARKS: NCI In Vivo Anticancer Drug Screen. Data for tumor model P388 Leukemia (intraperitoneal) in CD2F1 (CDF1) mice
- STUDY CONDITIONS: endpoint: median survival time; dose: 400.0 mg/kg/injection; schedule: Q04DX002 (ip); vehicle: saline; higher = longer survival
Inconclusive results and toxic doses are left out.
METRIC: T/C

Some compounds with known T/C results, for comparison:
[O-]c1nn(Cc2ccccc2)c2cccc[n+]12 100 % of control
CCCS(=O)(=O)CCC(=O)c1ccccc1 102 % of control
Cc1ccc(NC(=S)SCc2ccccc2)cc1Cl 106 % of control

Continue with the compound presented below.
Ask: Endpoint output: T/C of CC(C)c1cc(C=C2C(=O)c3ccccc3C2=O)cc(C(C)C)c1O . Value?
Reply: 97 % of control

* * *

Form field: T/C (one value per entry).
- System: P388 leukemia ip, CD2F1 mice, survival T/C
- ASSAY REMARKS: NCI In Vivo Anticancer Drug Screen. Data for tumor model P388 Leukemia (intraperitoneal) in CD2F1 (CDF1) mice
- STUDY CONDITIONS: endpoint: median survival time; dose: 100.0 mg/kg/injection; schedule: Q04DX003 (ip); vehicle: saline with Tween-80; higher = longer survival
Toxic doses and inconclusive results are not listed.

Illustrative cases are given below, each with its answer.
COMPOUND	T/C
CSc1nc(Cl)c(Br)c(Sc2nc(N)nc3nc[nH]c23)n1	118 % of control
CC(C)CSC(C)C	104 % of control
CCCCOc1cc([N+](=O)[O-])ccc1CO	100 % of control

Ask: Entry under review: CS(=O)(=O)OCC(O)C(O)COS(C)(=O)=O (stereo unspecified) . Reported T/C?
Reply: 109 % of control

Ask: Would you kindly repeat that for Cc1cc2ncn(CC(=O)O)c2cc1C ?
Reply: 90 % of control

Ask: Follow-up item: C[C@]12CCCC[C@@H]1CC[C@@H]1[C@@H]2[C@@H](O)C[C@]2(C)[C@@H](O)CC[C@@H]12
Reply: 91 % of control

Data origin, for the record: PubChem BioAssay AID330
